Collected inhibition at 100 µM values appear next to each entry.
# System: A-549
# assay: In vitro cytotoxicity against human cancer cell lines (sulforhodamine B)
# Type: cell-based
# conditionSummary: A549, A-549 (lung), 10^-4 mol/L, 48 hours, read-out: percentage growth inhibition

{"columns": ["smilesCode", "inhibition at 100 µM [%]"],
 "data": [
  ["COc1cc2c(cc1OCCCN1CCN(CCN3C(=O)c4cccc5cccc(c45)C3=O)CC1)N=C[C@@H]1CCCN1C2=O", 88],
  ["COc1cc2c(cc1OCCCCN1CCN(CCN3C(=O)c4cccc5cccc(c45)C3=O)CC1)N=C[C@@H]1CCCN1C2=O", 95],
  ["COc1cc2c(cc1OCCCN1CCN(CCCN3C(=O)c4cccc5cccc(c45)C3=O)CC1)N=C[C@@H]1CCCN1C2=O", 95],
  ["COc1cc2c(cc1OCCCCN1CCN(CCCCN3C(=O)c4cccc5cccc(c45)C3=O)CC1)N=C[C@@H]1CCCN1C2=O", 93]
]}

----------
Collected inhibition at 10 µM values appear next to each entry.
# System: HT-29
# assay: In vitro cytotoxicity against human cancer cell lines (sulforhodamine B)
# Format: cell-based
# conditionSummary: HT-29 (colon), 10^-5 mol/L, 48 hours, read-out: percentage growth inhibition
measurementType: inhibition at 10 µM (%)

{"columns": ["molecule", "measurementType", "resultValue"],
 "data": [
  ["COc1cc2c(cc1OCCCN1CCN(CCCN3C(=O)c4cccc5cccc(c45)C3=O)CC1)N=C[C@@H]1CCCN1C2=O [VIIId]", "inhibition at 10 µM", 62],
  ["COc1cc2c(cc1OCCCCN1CCN(CCN3C(=O)c4cccc5cccc(c45)C3=O)CC1)N=C[C@@H]1CCCN1C2=O [VIIIc]", "inhibition at 10 µM", 86],
  ["COc1cc2c(cc1OCCCN1CCN(CCN3C(=O)c4cccc5cccc(c45)C3=O)CC1)N=C[C@@H]1CCCN1C2=O [VIIIb]", "inhibition at 10 µM", 85],
  ["COc1cc2c(cc1OCCCCN1CCN(CCCCN3C(=O)c4cccc5cccc(c45)C3=O)CC1)N=C[C@@H]1CCCN1C2=O [VIIIe]", "inhibition at 10 µM", 78]
]}
